Reference source for all entries: patent US20090054398A1

melting point values by entry
measured.metric: melting point

[[record]]
structure_smiles = "N[C@@H](Cc1ccccc1)C(=O)N(C(=O)Cc1cc(F)cc(F)c1)[C@@H]1C(=O)Nc2ccccc2S[C@@H]1c1ccccc1"
data_value = "115 to 120 °C"

[[record]]
structure_smiles = "C[C@H](NC(=O)Cc1cccc(F)c1)C(=O)N[C@@H]1C(=O)Nc2ccccc2O[C@@H]1c1ccccc1"
data_value = "130 to 140 °C"

[[record]]
structure_smiles = "C[C@H](NC(=O)Cc1cc(F)cc(F)c1)C(=O)N[C@@H]1C(=O)Nc2ccccc2S[C@@H]1c1ccc(Br)s1"
data_value = "139 to 140 °C"

[[record]]
structure_smiles = "C[C@H](NC(=O)Cc1ccccc1)C(=O)N[C@@H]1C(=O)Nc2ccccc2O[C@@H]1c1ccccc1"
data_value = "122 to 136 °C"

